biological target: Tyrosyl-tRNA synthetase, putative (Trypanosoma cruzi (strain CL Brener)); experiment: Trypanosoma cruzi tyrosyl tRNA synthetase (TcYRS) _High Tyrosine SOP; format: functional; set-up: scale not given: in the data most compounds retested in dose-response had high values; details: 30 µM
parameter-measured: Percent Effect

Here is how some molecules turned out for Percent Effect.
molecule	subject-of-test	Percent Effect
CC(C)(C)c1n[nH]cc1CN1CCc2nc3ccsc3c(=O)n2CC1	Tyrosyl-tRNA synthetase, putative (Trypanosoma cruzi (strain CL Brener))	-1.07%
Clc1cc(CN2CCCC2Cn2cncn2)c2ncccc2c1 (configuration not stated)	Tyrosyl-tRNA synthetase, putative (Trypanosoma cruzi (strain CL Brener))	2.97%
COC(=O)CNC(=O)CSCc1nc(O)c2c(C)c(C)sc2n1	Tyrosyl-tRNA synthetase, putative (Trypanosoma cruzi (strain CL Brener))	3.17%
O=C(NCC(F)(F)F)NC1CCCc2c1cnn2CCO (configuration not stated)	Tyrosyl-tRNA synthetase, putative (Trypanosoma cruzi (strain CL Brener))	2.73%
CN1CCN(Cc2ccccc2CNC(=O)c2ccc(Br)cc2)CC1	Tyrosyl-tRNA synthetase, putative (Trypanosoma cruzi (strain CL Brener))	3.23%

In plain terms, CCO[C@@H]1CCN(C(=O)c2ccc[nH]2)[C@@H]1Cc1cnn(C)c1 has a documented Percent Effect of 4.25%

In plain terms, CC(=O)N1CCCC1C(=O)NCCOc1cc(C)cc(C)c1 (configuration not stated) has a documented Percent Effect of 6.8%

In plain terms, Cc1cc(C)n(CC(C)CNC(=O)[C@@H](C)NC(=O)OC(C)(C)C)n1 (some centres not stated) has a documented Percent Effect of 4.25%

In plain terms, Cc1ncccc1NC(=O)[C@H]1C[C@@H]2CCN(Cc3nccs3)C[C@@H]2O1 has a documented Percent Effect of 7.57%

In plain terms, Cn1cnc(S(=O)(=O)N2CCN(Cc3ccco3)CC2)c1Cl has a documented Percent Effect of -17.9%

---

Entries and their Percent Effect values follow.
target: Chromo domain-containing protein 1 (Saccharomyces cerevisiae (strain ATCC 204508 / S288c) (Baker's yeast)); assay: ScCHD-1 Enzyme Inhibition Assay; format: functional; set-up: scale not given: in the data most compounds retested in dose-response had high values; conditions: 30 µM
Number only, in %; omit the unit.

Here is how some compounds turned out for Percent Effect.
compound	display-unit	Percent Effect
CCn1cnnc1CNC(=O)c1cc(Cl)ccc1O	%	-14
CCCNC(=O)Cn1nc(C(C)C)c2cnn(C(C)(C)C)c2c1=O	%	-5.95
CC(C)(C)c1n[nH]cc1CN1CCc2nc3ccsc3c(=O)n2CC1	%	-5.96
CC(C)NC(=O)c1nnn(-c2cccc(C(F)(F)F)c2)c1C1CC1	%	77.3
CC(C)C1CN(c2ncccn2)CCC(=O)N1Cc1ccc(F)cc1 (stereo unspecified)	%	-3.01

In plain terms, CN1CCN(Cc2nc3ccccc3[nH]2)[C@H]2CS(=O)(=O)C[C@H]21 has a documented Percent Effect of -2.69

In plain terms, CCn1ccnc1CN1CCN(C(C)C(=O)NC2CCCCC2)CC1 (stereo unspecified) has a documented Percent Effect of 5.81

In plain terms, O=C(Nc1ccccn1)C1=NN(c2ccccc2)C(=O)CN1 has a documented Percent Effect of -12.2

In plain terms, Cc1ccc(C)c(-c2csc(N)c2C#N)c1 has a documented Percent Effect of 2.05

In plain terms, CSCC(=O)N1CCCC1c1noc(C2CC2)n1 (stereo unspecified) has a documented Percent Effect of -16.6

In plain terms, O=C(c1ccccc1-c1ccccc1)N1CCOC2(CNCCOC2)C1 (stereo unspecified) has a documented Percent Effect of -1.37
